targetEntity: hTLR7 (human Toll-like receptor 7) (Homo sapiens, UniProt Q9NYK1)
Construct: host or cells: HEK-Blue hTLR7 (HEK293-derived reporter cells)
Sequence (Q9NYK1 27-1049): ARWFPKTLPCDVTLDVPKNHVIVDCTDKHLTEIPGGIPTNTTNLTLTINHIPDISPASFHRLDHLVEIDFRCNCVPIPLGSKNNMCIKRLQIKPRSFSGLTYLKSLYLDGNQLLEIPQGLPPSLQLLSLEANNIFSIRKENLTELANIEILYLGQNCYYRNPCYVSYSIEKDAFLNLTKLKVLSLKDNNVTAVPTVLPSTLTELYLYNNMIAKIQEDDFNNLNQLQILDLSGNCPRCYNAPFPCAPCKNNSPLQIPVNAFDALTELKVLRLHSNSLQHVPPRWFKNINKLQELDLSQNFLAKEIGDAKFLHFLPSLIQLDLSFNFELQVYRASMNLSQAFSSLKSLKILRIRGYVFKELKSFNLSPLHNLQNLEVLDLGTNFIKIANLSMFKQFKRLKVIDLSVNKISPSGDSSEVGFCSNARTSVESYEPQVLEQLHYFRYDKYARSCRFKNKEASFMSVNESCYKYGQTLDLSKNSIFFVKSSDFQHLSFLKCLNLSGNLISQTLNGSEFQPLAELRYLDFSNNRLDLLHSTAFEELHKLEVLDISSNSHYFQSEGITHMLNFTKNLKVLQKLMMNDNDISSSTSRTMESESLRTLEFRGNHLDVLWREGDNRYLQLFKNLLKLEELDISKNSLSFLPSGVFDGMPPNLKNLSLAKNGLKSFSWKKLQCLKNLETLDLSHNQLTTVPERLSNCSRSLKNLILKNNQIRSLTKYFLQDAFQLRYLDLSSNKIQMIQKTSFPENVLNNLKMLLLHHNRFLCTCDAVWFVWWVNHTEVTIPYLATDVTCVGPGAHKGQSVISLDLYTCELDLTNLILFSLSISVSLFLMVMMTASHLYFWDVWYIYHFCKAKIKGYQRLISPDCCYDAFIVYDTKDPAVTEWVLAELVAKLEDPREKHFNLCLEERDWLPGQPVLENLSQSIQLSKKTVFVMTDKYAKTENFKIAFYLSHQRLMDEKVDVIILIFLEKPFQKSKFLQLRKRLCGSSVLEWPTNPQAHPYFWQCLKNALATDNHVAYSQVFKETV
testName: HEK-Blue hTLR7 reporter assay (QUANTI-Blue, OD650)
Type: cell-based
studyConditions: HEK-Blue hTLR7 cells, 24 h; class symbols; read-out: Reporter assay TLR7 EC50
pEC50: −log10 of the molar value.
# maps each entry to its pEC50

The molecule CCCN(OCc1ccc(N)cc1)C(=O)C1=Cc2ccc(C(=O)NC3CCOCC3)cc2N=C(N)C1 [Compound 84] showed pEC50 equal to < 6.00

The molecule NC1=Nc2cc(-c3cncc(CO)c3)ccc2C=C(C(=O)N(CCC(F)(F)F)OCc2ccc(N)cc2)C1 [Compound 58] showed pEC50 equal to 6.00 to 7.00

The molecule CCCN(OCc1ccc(N)cc1)C(=O)C1=Cc2ccc(C(=O)NC3COC3)cc2N=C(N)C1 [Compound 81] showed pEC50 equal to < 6.00

The molecule CCCN(OCc1ccc(N)cc1)C(=O)C1=Cc2ccc(-c3cncc(S(=O)(=O)NCCO)c3)cc2N=C(N)C1 [Compound 70] showed pEC50 equal to 6.00 to 7.00
